What log10 Kd was measured for each of the following?
Target: Mitogen-activated protein kinase 14 (Homo sapiens, UniProt Q16539)
Sequence (Q16539 whole entry): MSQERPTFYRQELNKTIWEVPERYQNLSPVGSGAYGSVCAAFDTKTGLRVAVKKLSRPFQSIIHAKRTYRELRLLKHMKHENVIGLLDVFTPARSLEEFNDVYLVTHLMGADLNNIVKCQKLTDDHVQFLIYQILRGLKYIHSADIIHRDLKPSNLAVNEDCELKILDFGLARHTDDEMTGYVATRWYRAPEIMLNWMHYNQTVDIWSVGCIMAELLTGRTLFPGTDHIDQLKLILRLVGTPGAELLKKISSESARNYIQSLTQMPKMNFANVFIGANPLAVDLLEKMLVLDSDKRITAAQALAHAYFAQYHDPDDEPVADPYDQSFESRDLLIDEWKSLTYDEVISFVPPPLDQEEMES
Test: Binding affinity for Mitogen-activated protein kinase p38 alpha
Please interpret these as log10 of Kd where Kd is in nM.

entry_smiles	endpoint	measured_number
Cc1ccc(-n2nc(C(C)(C)C)cc2NC(=O)Nc2ccc(OCCN3CCOCC3)c3ccccc23)cn1	log10 Kd	0.04
CC(C)(C)c1cc(NC(=O)Nc2ccc(OCCN3CCOCC3)c3ccccc23)n(-c2ccccc2)n1	log10 Kd	-1.01
COc1cc(NC(=O)Nc2cc(C(C)(C)C)nn2-c2ccc(C)cc2)c2ccccc2c1	log10 Kd	0.97
Cc1ccc(-n2nc(C(C)(C)C)cc2NC(=O)Nc2ccc(OCCN3CCOCC3)c3ccccc23)cc1CN(C)C	log10 Kd	0.68
Cc1ccc(-n2nc(C(C)(C)C)cc2NC(=O)Nc2ccccc2)cc1	log10 Kd	1.34

Field: log10 Kd. Fill in for each record below.
1. Cn1nc(C(C)(C)C)cc1NC(=O)Nc1ccc(OCCN2CCOCC2)c2ccccc12
2. Cc1ccc(-n2nc(C(C)(C)C)cc2NC(=O)Nc2ccc(OCCN3CCOCC3)c3ccccc23)cc1C(=O)O

1: 1.36; 2: 0.40

Field: log10 Kd. Fill in for each record below.
1. Cc1ccc(-n2nc(C(C)(C)C)cc2NC(=O)Nc2cccc3ccccc23)cc1
2. Cc1ccc(-n2nc(C(C)(C)C)cc2NC(=O)Nc2ccc(CCCN3CCOCC3)c3ccccc23)cc1
3. CC(C)c1cc(NC(=O)Nc2ccc(OCCN3CCOCC3)c3ccccc23)n(-c2ccccc2)n1

0.04
0.08
0.77

Field: log10 Kd. Fill in for each record below.
1. CN(C)Cc1cccc(-n2nc(C(C)(C)C)cc2NC(=O)Nc2ccc(OCCN3CCOCC3)c3ccccc23)c1
2. O=C(Nc1ccc(OCCN2CCOCC2)c2ccccc12)Nc1ccnn1-c1ccccc1
3. COc1cc(NC(=O)Nc2cc(C(C)(C)C)nn2-c2ccc(C)cc2)c2ccccc2c1OCCN1CCOCC1

[1.20, 3.30, 1.15]

Please supply the value of reported log10 Kd for the item Cc1ccc(-n2nc(C(C)(C)CO)cc2NC(=O)Nc2ccc(OCCN3CCOCC3)c3ccccc23)cc1 1.20
